// data source = patent US20250302832A1

Measured Dmax, listed per entry for reference.
Target: HiBit-BRG1 fusion protein (Homo sapiens, UniProt P51532)
Construct: expressed in transfected cells
Sequence (P51532 whole entry, the tested form may be a part): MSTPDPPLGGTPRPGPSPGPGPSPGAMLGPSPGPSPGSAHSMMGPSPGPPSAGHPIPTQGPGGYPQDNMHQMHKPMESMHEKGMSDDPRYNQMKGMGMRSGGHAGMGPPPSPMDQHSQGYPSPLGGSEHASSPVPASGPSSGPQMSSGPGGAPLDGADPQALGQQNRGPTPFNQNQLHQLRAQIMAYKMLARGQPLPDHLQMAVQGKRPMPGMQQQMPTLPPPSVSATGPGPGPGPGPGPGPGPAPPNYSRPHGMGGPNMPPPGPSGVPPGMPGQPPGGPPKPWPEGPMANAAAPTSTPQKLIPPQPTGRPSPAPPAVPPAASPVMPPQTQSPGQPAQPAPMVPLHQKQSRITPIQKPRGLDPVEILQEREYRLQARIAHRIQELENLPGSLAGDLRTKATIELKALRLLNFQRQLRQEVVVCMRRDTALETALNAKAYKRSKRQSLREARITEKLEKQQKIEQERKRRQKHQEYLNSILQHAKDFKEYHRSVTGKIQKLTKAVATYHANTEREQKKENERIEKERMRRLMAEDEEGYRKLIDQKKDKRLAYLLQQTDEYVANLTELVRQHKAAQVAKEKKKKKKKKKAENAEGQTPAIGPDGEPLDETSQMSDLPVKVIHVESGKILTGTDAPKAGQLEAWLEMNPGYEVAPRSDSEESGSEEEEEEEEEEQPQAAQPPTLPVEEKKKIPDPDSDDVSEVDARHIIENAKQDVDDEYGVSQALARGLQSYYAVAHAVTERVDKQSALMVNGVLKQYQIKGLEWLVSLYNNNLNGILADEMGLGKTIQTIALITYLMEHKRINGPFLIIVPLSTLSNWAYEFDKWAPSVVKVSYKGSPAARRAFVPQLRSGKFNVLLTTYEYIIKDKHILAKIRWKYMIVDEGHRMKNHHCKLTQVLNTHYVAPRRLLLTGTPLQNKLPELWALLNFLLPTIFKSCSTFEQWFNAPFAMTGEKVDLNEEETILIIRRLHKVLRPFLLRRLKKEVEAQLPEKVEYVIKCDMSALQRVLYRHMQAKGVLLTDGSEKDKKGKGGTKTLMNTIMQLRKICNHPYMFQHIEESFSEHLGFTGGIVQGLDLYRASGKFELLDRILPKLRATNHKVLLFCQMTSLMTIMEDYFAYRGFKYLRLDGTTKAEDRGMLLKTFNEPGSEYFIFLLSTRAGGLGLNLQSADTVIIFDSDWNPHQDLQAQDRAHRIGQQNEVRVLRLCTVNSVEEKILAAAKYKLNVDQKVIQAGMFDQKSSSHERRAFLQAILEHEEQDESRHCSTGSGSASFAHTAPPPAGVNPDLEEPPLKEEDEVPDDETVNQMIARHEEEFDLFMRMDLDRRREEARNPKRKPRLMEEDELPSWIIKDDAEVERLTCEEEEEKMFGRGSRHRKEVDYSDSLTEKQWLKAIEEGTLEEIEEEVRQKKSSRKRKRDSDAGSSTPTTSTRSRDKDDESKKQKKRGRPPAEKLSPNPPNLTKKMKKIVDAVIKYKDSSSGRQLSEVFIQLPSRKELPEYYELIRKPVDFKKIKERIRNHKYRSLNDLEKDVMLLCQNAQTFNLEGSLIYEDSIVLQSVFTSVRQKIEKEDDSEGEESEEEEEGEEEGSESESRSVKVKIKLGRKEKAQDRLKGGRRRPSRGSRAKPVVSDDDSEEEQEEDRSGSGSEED
Assay: HiBiT-BRG1 cell-based degradation assay (Nano-Glo HiBiT lytic detection, 24 h)
Settings: HeLa cell line expressing HiBit-BRG1 and LgBit, read-out: BRG1 HiBit Degradation Maximum (%)

# annotated cases, reported Dmax shown
compound	reportedMeasurement
CNC(=O)[C@@H]1C[C@@H](O)CN1C(=O)[C@@H](c1cc(N2CC3(CC(c4cc5nnc(-c6ccccc6O)cc5n4C4CCC4)C3)C2)no1)C(C)C	< 50%
Cc1ncsc1-c1ccc([C@H](C)NC(=O)[C@@H]2C[C@@H](O)CN2C(=O)[C@@H](c2cc(-c3cnc(N4CC[C@@H](c5cc6nnc(-c7ccccc7O)cc6n5C5(C)CC5)C4)nc3)no2)C(C)C)cc1	> 50%
CC(C)C(C(=O)N1C[C@H](O)C[C@H]1C(=O)NC1CCC1)c1cc(N2CC3(CC(c4cc5nnc(-c6ccccc6O)cc5n4C4CCC4)C3)C2)no1 (stereo partly drawn)	< 50%
Cc1ncsc1-c1ccc([C@H](C)NC(=O)[C@@H]2C[C@@H](O)CN2C(=O)[C@H](C(C)C)n2cc(-c3cnc(N4CC[C@H](c5cc6nnc(-c7ccccc7O)cc6n5C5CC5)C4)nc3)nn2)cc1	> 50%
CC(C)C(C(=O)N1C[C@H](O)C[C@H]1C(=O)NCC1CC1)c1cc(N2CC3(CC(c4cc5nnc(-c6ccccc6O)cc5n4C4CCC4)C3)C2)no1 (stereo partly drawn)	< 50%

Prompt: Report Dmax for Cc1ncsc1-c1ccc([C@H](C)NC(=O)[C@@H]2C[C@@H](O)CN2C(=O)[C@@H](c2cc(-c3cc(N4CC[C@@H](c5cc6nnc(-c7ccccc7O)cc6n5C5CC5)C4)ccn3)no2)C(C)C)cc1 (single isomer, unassigned) please.
Response: < 50%

Prompt: Entry to check: `Cc1ncsc1-c1ccc([C@H](C)NC(=O)[C@@H]2C[C@@H](O)CN2C(=O)[C@@H](c2cc(OCCN3C[C@@H]4[C@H](C3)[C@H]4n3c(C)cc4nnc(-c5ccccc5O)cc43)no2)C(C)C)cc1`
Response: < 50%

Prompt: Entry to check: C#Cc1ccc(CNC(=O)[C@@H]2C[C@@H](O)CN2C(=O)C(c2cc(N3CC4(CC(c5cc6nnc(-c7ccccc7O)cc6n5C5CCC5)C4)C3)no2)C(C)C)c(Cl)c1 (stereo partly drawn)
Response: < 50%

Prompt: Entry to check: `Cc1ncsc1-c1ccc([C@H](C)NC(=O)[C@@H]2C[C@@H](O)CN2C(=O)[C@@H](c2cc(-c3cnc(N4CC[C@@H](c5cc6nnc(-c7cc(F)cc(Cl)c7O)cc6n5C5CC5)C4)nc3)no2)C(C)C)cc1`
Response: < 50%

###

Measured DC50, listed per entry for reference.
Target: HiBit-BRM fusion protein (Homo sapiens, UniProt P51531)
Construct: expressed in transfected cells
Sequence (P51531 whole entry, the tested form may be a part): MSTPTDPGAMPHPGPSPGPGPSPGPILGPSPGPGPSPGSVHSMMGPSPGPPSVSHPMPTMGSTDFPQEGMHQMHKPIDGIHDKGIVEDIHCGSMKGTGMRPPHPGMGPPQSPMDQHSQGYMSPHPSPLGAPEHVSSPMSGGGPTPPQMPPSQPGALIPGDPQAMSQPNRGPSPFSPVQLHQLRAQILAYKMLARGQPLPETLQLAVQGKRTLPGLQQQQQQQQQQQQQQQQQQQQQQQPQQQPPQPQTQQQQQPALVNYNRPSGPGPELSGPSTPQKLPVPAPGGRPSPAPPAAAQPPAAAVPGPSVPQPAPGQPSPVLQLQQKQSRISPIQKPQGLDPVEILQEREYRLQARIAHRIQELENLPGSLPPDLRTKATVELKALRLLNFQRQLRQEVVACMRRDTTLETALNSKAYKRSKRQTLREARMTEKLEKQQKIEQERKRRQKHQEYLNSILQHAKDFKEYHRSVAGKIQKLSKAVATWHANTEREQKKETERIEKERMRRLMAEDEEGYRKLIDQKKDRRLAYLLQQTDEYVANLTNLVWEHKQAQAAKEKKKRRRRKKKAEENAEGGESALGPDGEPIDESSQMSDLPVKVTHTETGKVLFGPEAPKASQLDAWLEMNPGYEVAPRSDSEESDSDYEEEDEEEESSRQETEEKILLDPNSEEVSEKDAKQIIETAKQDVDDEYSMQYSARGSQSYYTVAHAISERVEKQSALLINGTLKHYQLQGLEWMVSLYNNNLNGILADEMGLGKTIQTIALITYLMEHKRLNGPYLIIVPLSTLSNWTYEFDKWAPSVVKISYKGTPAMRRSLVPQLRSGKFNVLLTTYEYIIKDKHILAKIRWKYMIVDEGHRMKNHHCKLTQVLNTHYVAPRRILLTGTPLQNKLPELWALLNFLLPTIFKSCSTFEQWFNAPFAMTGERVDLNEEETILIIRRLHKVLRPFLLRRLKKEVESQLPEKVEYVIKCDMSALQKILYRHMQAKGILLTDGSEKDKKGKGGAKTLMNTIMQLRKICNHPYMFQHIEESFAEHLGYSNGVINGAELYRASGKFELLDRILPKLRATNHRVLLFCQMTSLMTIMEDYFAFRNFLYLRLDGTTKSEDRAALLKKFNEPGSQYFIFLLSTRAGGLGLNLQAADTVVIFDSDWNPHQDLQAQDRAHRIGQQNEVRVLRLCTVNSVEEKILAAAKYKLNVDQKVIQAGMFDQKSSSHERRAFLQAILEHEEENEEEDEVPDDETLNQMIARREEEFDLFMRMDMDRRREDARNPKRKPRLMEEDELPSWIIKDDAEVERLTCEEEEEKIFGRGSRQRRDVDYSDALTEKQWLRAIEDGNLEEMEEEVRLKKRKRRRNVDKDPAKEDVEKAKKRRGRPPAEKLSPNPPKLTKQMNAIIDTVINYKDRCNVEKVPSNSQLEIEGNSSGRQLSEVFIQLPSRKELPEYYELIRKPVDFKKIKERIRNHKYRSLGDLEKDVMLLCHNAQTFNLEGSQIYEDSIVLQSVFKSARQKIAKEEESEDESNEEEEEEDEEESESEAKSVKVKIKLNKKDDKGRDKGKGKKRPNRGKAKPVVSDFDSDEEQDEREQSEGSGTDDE
Assay: HiBiT-BRM cell-based degradation assay (Nano-Glo HiBiT lytic detection, 24 h)
Details: HeLa cell line expressing HiBiT-BRM, read-out: BRM HiBit Degradation IC50

# annotated cases, reported DC50 shown
compound	reportedMeasurement
Cc1ncsc1-c1ccc([C@H](C)NC(=O)[C@@H]2C[C@@H](O)CN2C(=O)[C@H](c2cc(-c3cnc(N4CCC(c5cc6nnc(-c7ccccc7O)cc6n5C5(C)CC5)CC4)nc3)no2)C(C)C)cc1	> 0.01 µM
Cc1cc(-c2cc([C@H](C(=O)N3C[C@H](O)C[C@H]3C(=O)N[C@@H](C)c3ccc(-c4scnc4C)cc3)C(C)C)on2)cnc1N1CC[C@H](c2cc3nnc(-c4ccccc4O)cc3n2C2CC2)C1 (single isomer, unassigned)	< 0.01 µM
Cc1ncsc1-c1ccc([C@H](C)NC(=O)[C@@H]2C[C@@H](O)CN2C(=O)[C@@H](c2cc(N(C)CCN3CC(c4cc5nnc(-c6ccccc6O)cc5n4C)C3)no2)C(C)C)cc1	> 0.01 µM

Prompt: Report DC50 for CC(C)C(C(=O)N1C[C@H](O)C[C@H]1C(=O)NCC1CC1)c1cc(N2CC3(CC(c4cc5nnc(-c6ccccc6O)cc5n4C4CCC4)C3)C2)no1 (stereo partly shown) please.
Response: > 0.01 µM

Prompt: Entry to check: `Cc1ncsc1-c1ccc([C@H](C)NC(=O)[C@@H]2C[C@@H](O)CN2C(=O)[C@@H](c2cc(N3CCC[C@H](c4cc5nnc(-c6ccccc6O)cc5n4C4CC4)C3)no2)C(C)C)cc1`
Response: > 0.01 µM

Prompt: Entry to check: `Cc1ncsc1-c1ccc([C@H](C)NC(=O)[C@@H]2C[C@@H](O)CN2C(=O)[C@H](c2cc(-c3cnc(N4CCN(c5cc6nnc(-c7ccccc7O)cc6n5C)CC4)nc3)no2)C(C)C)cc1`
Response: > 0.01 µM

Prompt: Entry to check: `Cc1ncsc1-c1ccc([C@H](C)NC(=O)[C@@H]2C[C@@H](O)CN2C(=O)[C@@H](C(C)C)n2cc(-c3cnc(N4CC[C@H](c5cc6nnc(-c7ccccc7O)cc6n5C5CC5)C4)nc3)nn2)cc1`
Response: > 0.01 µM

Prompt: Entry to check: `Cc1ncsc1-c1ccc([C@H](C)NC(=O)[C@@H]2C[C@@H](O)CN2C(=O)[C@@H](c2cc(N3CC[C@H](c4cc5nnc(-c6ccccc6O)cc5n4C4CCC4)C3)no2)C(C)C)cc1`
Response: > 0.01 µM

Prompt: Entry to check: `Cc1ncsc1-c1ccc([C@H](C)NC(=O)[C@@H]2C[C@@H](O)CN2C(=O)[C@@H](c2cc(OCCCN3CC(c4cc5nnc(-c6ccccc6O)cc5n4C)C3)no2)C(C)C)cc1`
Response: > 0.01 µM

Prompt: Entry to check: `Cc1ncsc1-c1ccc([C@H](C)NC(=O)[C@@H]2C[C@@H](O)CN2C(=O)[C@@H](c2cc(-c3cnc(N4CCC(c5cc6nnc(-c7ccccc7O)cc6n5C(C)C)CC4)nc3)no2)C(C)C)cc1`
Response: < 0.01 µM
